- system-name: cellular IDO1 in HeLa cells (Homo sapiens (Human), UniProt P14902)
- Sequence (P14902 whole entry): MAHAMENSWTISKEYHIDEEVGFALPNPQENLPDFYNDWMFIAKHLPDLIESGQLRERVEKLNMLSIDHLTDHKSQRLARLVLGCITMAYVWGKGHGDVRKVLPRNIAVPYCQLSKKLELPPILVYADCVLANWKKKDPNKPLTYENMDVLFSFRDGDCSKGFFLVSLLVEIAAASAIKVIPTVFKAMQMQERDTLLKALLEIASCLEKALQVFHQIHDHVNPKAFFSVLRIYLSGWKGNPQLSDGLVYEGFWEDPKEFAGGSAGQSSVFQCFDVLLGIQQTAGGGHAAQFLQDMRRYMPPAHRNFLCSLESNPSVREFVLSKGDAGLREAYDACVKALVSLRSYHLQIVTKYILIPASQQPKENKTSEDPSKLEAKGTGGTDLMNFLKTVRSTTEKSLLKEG
- run-description: HeLa Cell-Based IDO1 Kyn (Kynurenine) Production Assay
- study-conditions: IFN-γ induced IDO1, 48 hours incubation, Kyn absorbance at 480 nm
readout: EC50 (nM)

In [3]: df
Out[3]:
                                   compound                               system_name  unit_of_measurement  assay_result
0  Clc1ccc2[nH]c(CC3CCC(c4cnc5ccccc5c4)CC3)nc2c1 (stereo not drawn)  cellular IDO1 in HeLa cells (Homo sapiens (Human), UniProt P14902)                   nM           8.2
1  Fc1ccc2nccc([C@H]3CC[C@H](Cc4nc5cc(C(F)(F)F)ccc5[nH]4)CC3)c2c1  cellular IDO1 in HeLa cells (Homo sapiens (Human), UniProt P14902)                   nM            72
2  C[C@H](c1nc2c(ccc3ccccc32)[nH]1)[C@H]1CC[C@@H](c2ccnc3ccc(F)cc32)CC1  cellular IDO1 in HeLa cells (Homo sapiens (Human), UniProt P14902)                   nM           1.3
3  CC(c1nc2cc(C(=O)Nc3ccccc3)ccc2[nH]1)[C@H]1CC[C@@H](c2ccnc3ccc(F)cc32)CC1 (stereo partly drawn)  cellular IDO1 in HeLa cells (Homo sapiens (Human), UniProt P14902)                   nM          86.7
4  C[C@@H](c1nc2ccc(S(C)(=O)=O)cc2[nH]1)[C@H]1CC[C@H](c2ccnc3ccc(F)cc32)CC1  cellular IDO1 in HeLa cells (Homo sapiens (Human), UniProt P14902)                   nM           283

I. COC(=O)c1cc2nc(C(C)[C@H]3CC[C@@H](c4ccnc5ccc(F)cc54)CC3)[nH]c2c(F)c1F (stereo partly drawn)
II. COC(=O)c1cc(C)c2[nH]c(C(C)C3CCC(c4ccnc5ccc(F)cc45)CC3)nc2c1 (stereo not drawn)
## Task Choose between I and II : whose measured EC50 value is numerically larger? Indicate your choice by writing its label.
## Result II

Hey, just so you know, these numbers are from patent US11472788B2.
